- assay.system: Hypoxia-inducible factor 1-alpha
- measurement.protocol: Inhibition of HIF-1 alpha transcriptional activity in human U-251 cells incubated for 24 hrs under hypoxia condition by luciferse reporter assay
endpoint.label: IC50 (µM)
Write it as a number; the unit µM goes unstated.

Some entries whose results are on file:
* COc1cc(/C=C/C(=O)c2ccc3c(c2O)C=CC(C)(C)O3)ccc1OCCN1CCC(C)CC1 | 5.75
* COc1cc(/C=C/C(=O)c2ccc3c(c2O)C=CC(C)(C)O3)ccc1OCCN1CCCCC1 | 5.4
* CCN(CC)CCCOc1cc(/C=C/C(=O)c2ccc3c(c2O)C=CC(C)(C)O3)ccc1OC | 5.65
* COc1cc(/C=C/C(=O)c2ccc3c(c2O)C=CC(C)(C)O3)ccc1OCCN1CCOCC1 | 8.09

Here's the next entry for you.
Reported IC50 (Hypoxia-inducible factor 1-alpha) for entry COc1ccc(/C=C/C(=O)c2ccc3c(c2O)C=CC(C)(C)O3)cc1OCCCN1CCN(C)CC1 is 5.19
